ASSAY_SYSTEM: T1, recombinant human MASP1 active protease (amino acids 297-699, C-terminal His Tag) (human, UniProt P48740 297-699)
T1 sequence: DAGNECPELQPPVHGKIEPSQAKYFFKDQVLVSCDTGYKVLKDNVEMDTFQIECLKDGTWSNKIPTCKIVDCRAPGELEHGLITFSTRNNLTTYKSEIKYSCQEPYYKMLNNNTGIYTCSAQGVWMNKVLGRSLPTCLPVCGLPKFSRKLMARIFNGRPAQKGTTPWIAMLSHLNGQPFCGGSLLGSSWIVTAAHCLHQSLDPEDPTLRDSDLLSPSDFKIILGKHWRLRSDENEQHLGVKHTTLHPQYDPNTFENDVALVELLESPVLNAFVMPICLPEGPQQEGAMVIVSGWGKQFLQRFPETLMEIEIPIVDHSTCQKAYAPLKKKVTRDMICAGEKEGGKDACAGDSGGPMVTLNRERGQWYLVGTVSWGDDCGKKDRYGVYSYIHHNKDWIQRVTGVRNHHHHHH
EXPERIMENT_SUMMARY: cell-based or functional assay
Numbered stars: 1 amine (or outer) side, 2 acyl side, 3 side chain; on linkers, the order of the positions; unused ones are H or OH. Bridge positions count the residues as written; N and C are the ends. Square brackets hold non-standard residues; d marks the D form. Primed or numbered codes have the meaning given here. Ends that are not written are not given here. TTDS = 1,13-diamino-4,7,10-trioxatridecan-succinamic acid, O=C(CCC(=O)[*:2])NCCCOCCOCCOCCCN[*:1]; Oic = O=C(O)[C@@H]1C[C@@H]2CCCC[C@@H]2N1; Pro‑D2″ = L-Proline (3,4-2H), deuterated; tBuAla = CC(C)(C)C[C@H](N)C(=O)O; Pen = CC(C)(S)[C@H](N)C(=O)O; NMeA = CN[C@@H](C)C(=O)O; Sar = CNCC(=O)O
The label is true for human MASP1 IC50 below 2 nM and false for human MASP1 IC50 equal to or exceeding 2 nM.

Here are 4 binders together with their reported answers.
BINDER	CLASS_NAME
AICSRSL[Pro‑D2″][Oic]I[Pen]IPD-OH (disulfide 3-11) [AIC+SRSL-(Pro-D2)-(Oic)-I-(Pen)+IPD-OH]	false
[Sar]ICSRSLP[Oic]I[Pen]IP[TTDS]-NH2 (disulfide 3-11; N-terminus assumed; SMILES CC[C@H](C)[C@H](NC(=O)CNC)C(=O)N[C@H]1CSSC(C)(C)[C@@H](C(=O)N[C@H](C(=O)N2CCC[C@H]2C(=O)NCCCOCCOCCOCCCNC(=O)CCC(N)=O)[C@@H](C)CC)NC(=O)[C@H]([C@@H](C)CC)NC(=O)[C@@H]2C[C@@H]3CCCC[C@@H]3N2C(=O)[C@@H]2CCCN2C(=O)[C@H](CC(C)C)NC(=O)[C@H](CO)NC(=O)[C@H](CCCNC(=N)N)NC(=O)[C@H](CO)NC1=O) [((N-Me)G)-IC+SRSLP-(Oic)-I-(Pen)+IP-(TTDS)-NH2]	false
TICSRS[tBuAla]PPI[Pen]IPD-NH2 (disulfide 3-11; N-terminus assumed; SMILES CC[C@H](C)[C@H](NC(=O)[C@@H](N)[C@@H](C)O)C(=O)N[C@H]1CSSC(C)(C)[C@@H](C(=O)N[C@H](C(=O)N2CCC[C@H]2C(=O)N[C@@H](CC(=O)O)C(N)=O)[C@@H](C)CC)NC(=O)[C@H]([C@@H](C)CC)NC(=O)[C@@H]2CCCN2C(=O)[C@@H]2CCCN2C(=O)[C@H](CC(C)(C)C)NC(=O)[C@H](CO)NC(=O)[C@H](CCCNC(=N)N)NC(=O)[C@H](CO)NC1=O) [TIC+SRS-((tBu)A)-PPI-(Pen)+IPD-NH2]	false
AICSRS[tBuAla]PPICI-NH2 (disulfide 3-11; N-terminus assumed; SMILES CC[C@H](C)[C@H](NC(=O)[C@@H]1CSSC[C@H](NC(=O)[C@@H](NC(=O)[C@H](C)N)[C@@H](C)CC)C(=O)N[C@@H](CO)C(=O)N[C@@H](CCCNC(=N)N)C(=O)N[C@@H](CO)C(=O)N[C@@H](CC(C)(C)C)C(=O)N2CCC[C@H]2C(=O)N2CCC[C@H]2C(=O)N[C@@H]([C@@H](C)CC)C(=O)N1)C(N)=O) [AIC+SRS-((tBu)A)-PPIC+I-NH2]	true

Please find the next binder below.
Would you kindly verify if human MASP1 IC50 of [NMeA]ICSRS[tBuAla]PPI[Pen]IPD-NH2 (disulfide 3-11; N-terminus assumed; SMILES CC[C@H](C)[C@H](NC(=O)[C@H](C)NC)C(=O)N[C@H]1CSSC(C)(C)[C@@H](C(=O)N[C@H](C(=O)N2CCC[C@H]2C(=O)N[C@@H](CC(=O)O)C(N)=O)[C@@H](C)CC)NC(=O)[C@H]([C@@H](C)CC)NC(=O)[C@@H]2CCCN2C(=O)[C@@H]2CCCN2C(=O)[C@H](CC(C)(C)C)NC(=O)[C@H](CO)NC(=O)[C@H](CCCNC(=N)N)NC(=O)[C@H](CO)NC1=O) [((N-Me)A)-IC+SRS-((tBu)A)-PPI-(Pen)+IPD-NH2] is strictly less than 2 nM?
true
